These data points were gathered from patent US20240174714A1.

Item-by-item account of IC50
- Test system: axenic Leishmania donovani MHOM-ET-67/L82 amastigotes
- Test: In vitro antiprotozoal assay, axenic amastigotes
- Assay type: cell-based
- Test context: axenic amastigotes; read-out: L.don.ax. IC50
Square brackets hold non-standard residues; d marks the D form. Peptide text beside a SMILES is read from it. * marks the point of attachment. Adamantane1carbonyl = O=C(C12CC3CC(CC(C3)C1)C2)*; NH((S)CH(Me)CH2NMe2) = C[C@@H](CN(C)C)N*; NH(1-CH2NMe2-cBu) = CN(C)CC1(N*)CCC1; Gly(octyl) = CCCCCCCC[C@H](N)C(=O)O; Oxazole4CO(2-Me) = Cc1nc(C(=O)*)co1; Aoc(2) = CCCCCC[C@H](N)C(=O)O; Aib = CC(C)(N)C(=O)O; βAla = NCCC(=O)O
Field: numeric (nM). Do not append units.

compound="CCCCCC[C@H](NC(=O)[C@@H]1CCCN1C(=O)c1coc(C)n1)C(=O)N[C@@H](CC(C)C)C(=O)NC(C)(C)C(=O)N[C@@H](CC(C)C)C(=O)N[C@@H](CC(C)C)C(=O)NC(C)(C)C(=O)NC(C)(C)C(=O)NCCC(=O)NC1(CN(C)C)CCC1 [Compound 6894] ({Oxazole4CO(2-Me)}-P[Aoc(2)]L[Aib]LL[Aib][Aib][βAla]-{NH(1-CH2NMe2-cBu)})" observed_measurement=20.6

Could you now consider this next compound?
For the compound CCCCCCCC[C@H](NC(=O)[C@@H]1CCCN1C(=O)C12CC3CC(CC(C3)C1)C2)C(=O)N[C@@H](CC(C)C)C(=O)NC(C)(C)C(=O)N[C@@H](CC(C)C)C(=O)N[C@@H](CC(C)C)C(=O)NC(C)(C)C(=O)NC(C)(C)C(=O)NCCC(=O)N[C@@H](C)CN(C)C [Compound 5770] (Adamantane1carbonyl-P[Gly(octyl)]L[Aib]LL[Aib][Aib][βAla]-{NH((S)CH(Me)CH2NMe2)}) , give its measured IC50 value.
1
